Target: UniProt:P42338
Sequence (P42338 whole entry, looked up): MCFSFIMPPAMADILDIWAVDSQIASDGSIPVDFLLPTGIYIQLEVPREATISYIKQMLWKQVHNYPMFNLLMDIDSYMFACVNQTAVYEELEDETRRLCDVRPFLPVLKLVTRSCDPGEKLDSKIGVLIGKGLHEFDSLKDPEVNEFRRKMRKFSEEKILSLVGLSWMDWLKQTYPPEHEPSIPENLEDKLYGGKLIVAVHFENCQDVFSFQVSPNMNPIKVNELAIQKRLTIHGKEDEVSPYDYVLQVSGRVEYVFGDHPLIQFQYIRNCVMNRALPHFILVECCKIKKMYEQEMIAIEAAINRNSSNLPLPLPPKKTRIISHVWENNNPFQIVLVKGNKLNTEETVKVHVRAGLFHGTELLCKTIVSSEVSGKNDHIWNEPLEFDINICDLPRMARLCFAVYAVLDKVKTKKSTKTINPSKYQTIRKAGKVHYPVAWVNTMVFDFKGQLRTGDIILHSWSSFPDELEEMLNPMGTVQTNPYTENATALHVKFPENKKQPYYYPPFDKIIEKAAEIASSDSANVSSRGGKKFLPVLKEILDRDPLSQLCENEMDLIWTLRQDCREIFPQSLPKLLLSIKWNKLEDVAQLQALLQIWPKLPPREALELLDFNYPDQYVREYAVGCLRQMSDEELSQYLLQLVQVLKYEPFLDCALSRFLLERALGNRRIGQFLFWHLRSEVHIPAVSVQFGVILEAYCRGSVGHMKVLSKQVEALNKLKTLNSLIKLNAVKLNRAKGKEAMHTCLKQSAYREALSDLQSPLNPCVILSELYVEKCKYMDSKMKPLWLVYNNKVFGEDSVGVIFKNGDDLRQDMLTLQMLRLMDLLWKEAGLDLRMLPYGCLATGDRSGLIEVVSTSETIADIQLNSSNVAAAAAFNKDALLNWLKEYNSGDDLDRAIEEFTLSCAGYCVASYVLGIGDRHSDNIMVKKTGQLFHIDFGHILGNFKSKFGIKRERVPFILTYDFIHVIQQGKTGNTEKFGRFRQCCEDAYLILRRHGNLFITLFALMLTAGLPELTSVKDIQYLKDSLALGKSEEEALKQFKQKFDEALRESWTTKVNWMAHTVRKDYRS
Assay: Assessment of PIK3CB Kinase Activity
The compounds listed here are annotated with their IC50.
READOUT LABEL: IC50

> print(dat)
                                 mol.smiles  measured.value
1  CC(=O)Nc1cnc(N)nc1N[C@@H](C)c1cc2cccc(Cl)c2c(=O)n1-c1ccccc1         > 10 µM
2  COc1cc(-c2cccc3cc([C@H](C)Nc4nc(N)ncc4-c4ccccc4)n(-c4ccccc4)c(=O)c23)ccn1         > 10 µM
3  COc1cc(-c2cccc3cc([C@H](C)Nc4nc(N)ncc4C(=O)N4CC(F)(F)C4)n(-c4ccccc4)c(=O)c23)ccn1         > 10 µM
4  C[C@H](Nc1nc(N)ncc1NS(C)(=O)=O)c1cc2cccc(Cl)c2c(=O)n1-c1ccccc1         > 10 µM
5  CC(=O)c1cnc(N)nc1N[C@@H](C)c1cc2cccc(Cl)c2c(=O)n1-c1ccccc1        < 0.1 µM
6  COc1nc(-c2cnc(N)nc2N[C@@H](C)c2cc3cccc(Cl)c3c(=O)n2-c2ccccc2)cs1        < 0.1 µM
